Sourced from patent US11466044B2

Test system: E coli wild type
Test: MIC by broth microdilution, wild type E coli
Type: cell-based
Conditions: Escherichia coli, strain AG01; Table 1 (Example 1); read-out: MIC50 E coli AG01
Counter-ions that a name gives are not always drawn.
measured.metric: MIC50

compound	tested.system	MIC50
CC(=O)NC[C@H]1O[C@@H](O[C@@H]2C(O)[C@H](N)CC(N)[C@H]2O[C@H]2OC(CO)[C@@H](O)[C@H](O)C2N)C(O)[C@H]1O[C@H]1O[C@@H](CN)[C@@H](O)C(O)C1N (stereo partly shown)	E coli wild type	64 µg/mL
NCC1OC(OC2C(CNC=O)OC(OC3C(O)C(N)CC(N)C3OC3OC(CO)C(O)CC3N)C2O)C(N)C(O)C1O (stereo not shown)	E coli wild type	8 to 16 µg/mL
NC[C@@H]1O[C@H](O[C@H]2[C@@H](O)[C@H](O[C@@H]3[C@@H](O)[C@H](N)C[C@H](N)[C@H]3O[C@H]3O[C@H](CO)[C@@H](O)[C@H](O)[C@H]3N)O[C@@H]2CO)[C@H](N)[C@@H](O)[C@@H]1O [paromomycin, reference compound]	E coli wild type	2 to 4 µg/mL

In the following, a different compound is considered.
Please give measured MIC50 of the following entry: NC[C@@H]1O[C@H](O[C@@H]2C(O)[C@H](O[C@@H]3C(O)[C@H](N)CC(N)[C@H]3O[C@H]3OC(CO)[C@@H](O)[C@H](O)C3N)O[C@@H]2CNC=O)C(N)C(O)[C@@H]1O (stereo partly shown) [Compound 137, acetate salt] 4 µg/mL

====

Test system: P aeruginosa
Test: MIC by broth microdilution, P aeruginosa isolates
Type: cell-based, Pseudomonas aeruginosa
Conditions: clinical isolate AG031, APH(3′)-II
measured.metric: MIC AG031 P. aer. APH(3′)-II

Some solved entries appear below for comparison.
compound	MIC AG031 P. aer. APH(3′)-II
CC(N)C1OC(OC2C(N)CC(N)C(O)C2OC2OC(CO)C(OC3OC(CN)C(O)C(O)C3N)C2O)C(N)C(O)C1O (centres unmarked)	128 to 256 µg/mL
NCC1OC(OC2C(CNC(N)=O)OC(OC3C(O)C(N)CC(N)C3OC3OC(CO)C(O)C(O)C3N)C2O)C(N)C(O)C1O (centres unmarked)	>128 µg/mL
NC[C@@H]1O[C@H](O[C@H]2[C@@H](O)[C@H](O[C@@H]3[C@@H](O)[C@H](N)C[C@H](N)[C@H]3O[C@H]3O[C@H](CO)[C@@H](O)C[C@H]3N)O[C@@H]2CO)[C@H](N)[C@@H](O)[C@@H]1O [Lividomycin B, lividomycin B, reference compound]	16 µg/mL
CC(=O)N[C@H]1[C@@H](O[C@H]2[C@H](O[C@@H]3O[C@H](CO)[C@@H](O[C@H]4O[C@@H](CN)[C@@H](O)[C@H](O)[C@H]4N)[C@H]3O)[C@@H](O)[C@H](N)C[C@@H]2N)O[C@H](CN)[C@@H](O)[C@@H]1O	>32 µg/mL
NC[C@H]1O[C@H](O[C@H]2[C@H](O[C@@H]3O[C@H](CO)[C@@H](O)[C@H]3O)[C@@H](O)[C@H](N)C[C@@H]2N)[C@H](N)C[C@@H]1O	4 µg/mL

Then there is this compound:
Find the measured MIC AG031 P. aer. APH(3′)-II of CC(O)C1OC(OC2C(N)CC(N)C(O)C2OC2OC(CO)C(OC3OC(CN)C(O)C(O)C3N)C2O)C(N)C(O)C1O (centres unmarked) and report it. >32 µg/mL
